measurement target: human H4 receptor (Homo sapiens)
Construct: expressed in transfected cells
Sequence (Q9H3N8 whole entry): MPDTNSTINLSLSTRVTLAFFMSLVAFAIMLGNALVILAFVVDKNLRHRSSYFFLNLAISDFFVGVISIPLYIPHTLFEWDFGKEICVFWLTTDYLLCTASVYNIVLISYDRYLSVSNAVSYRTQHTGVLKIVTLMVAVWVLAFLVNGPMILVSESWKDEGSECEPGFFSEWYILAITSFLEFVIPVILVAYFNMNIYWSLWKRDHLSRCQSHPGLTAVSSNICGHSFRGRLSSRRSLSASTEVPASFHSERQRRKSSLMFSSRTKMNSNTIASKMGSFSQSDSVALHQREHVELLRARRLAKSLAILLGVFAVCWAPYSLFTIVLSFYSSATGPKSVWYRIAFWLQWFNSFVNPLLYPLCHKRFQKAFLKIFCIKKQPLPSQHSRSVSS
assay summary: [3H]Histamine binding on membranes of CHO cells stably expressing human H4 receptor
quantity measured: Ki or IC50 activity class

Cc1cc(F)cc(C(OC2CCN(C)CC2)c2nc3ccccc3s2)c1 (stereo not drawn) ... < 300 nM
CN1CCC(OC(c2cccc(CCC3CNC3)c2)c2nc3ccccc3[nH]2)CC1 (stereo not drawn) ... < 1000 nM
CN1CCC(OC(c2cccc(SCCCCCCN)c2)c2nc3ccccc3[nH]2)CC1 (stereo not drawn) ... < 300 nM
CCCOc1cccc(C(NC2CCN(C)CC2)c2nc3ccccc3[nH]2)c1 (stereo not drawn) ... < 30 nM
CN1CCC(OC(c2cccc(Br)c2)c2nc3ccccc3[nH]2)CC1 (single isomer, unassigned) [Example 564] ... < 30 nM

Ask | Which measured Ki or IC50 activity class belongs to CN1CCC(OC(c2cccc(OC(F)(F)F)c2)c2nc3ccccc3[nH]2)CC1 (stereo not drawn) , tested on human H4 receptor (Homo sapiens)?
Reply | < 300 nM

Ask | Request - read-out Ki or IC50 activity class | tested on human H4 receptor (Homo sapiens) | molecule C=CCCOc1cccc(C(NC2CCN(C)CC2)c2nc3ccccc3[nH]2)c1 (stereo not drawn)
Reply | < 300 nM

Ask | Provide value of Ki or IC50 activity class for this record tested with human H4 receptor (Homo sapiens): CN1CCC(OC(c2cccc(-c3cccc(CC#N)c3)c2)c2nc3ccccc3s2)CC1 (stereo not drawn)
Reply | < 300 nM

Ask | Return Ki or IC50 activity class measured with human H4 receptor (Homo sapiens) given this molecule: Cc1cccc(C(NC2CCN(C)CC2)c2nc3ccccc3[nH]2)c1 (stereo not drawn)
Reply | < 1000 nM

Ask | Which Ki or IC50 activity class is reported with human H4 receptor (Homo sapiens) for this entry: CN1CCC(OC(c2cccc(-c3cccc(F)c3)c2)c2nc3ccccc3[nH]2)CC1 (stereo not drawn) ?
Reply | < 300 nM

Ask | Query for human H4 receptor (Homo sapiens): what Ki or IC50 activity class does the record show for CN1CCC(OC(c2ccc3c(c2)OC(F)(F)O3)c2nc3ccccc3[nH]2)CC1 (stereo not drawn) ?
Reply | < 1000 nM

Ask | Form field - read-out: Ki or IC50 activity class; system: human H4 receptor (Homo sapiens); submitted item: CN1CCC(OC(c2cccc(Cl)c2)c2nc3ccccc3[nH]2)CC1 (stereo not drawn)
Reply | < 300 nM
